So I've got a bunch of molecules here, and I need their selectivity ratio values.
- Assay name: Selectivity index, ratio of IC50 for African green monkey Vero cells to IC50 for Mycobacterium tuberculosis H37Rv
- Assay type: toxicity
- Reported conditions: read-out: Ratio IC50
API note: the answer field is a bare number with no unit suffix.

Which selectivity ratio value is on record for Cc1cc(=O)oc2cc(N3C(=O)/C(=C/c4ccc5c(c4)c4ccccc4n5C)SC3=S)ccc12 ?
14.8

Which selectivity ratio value is on record for COc1ccc(N2C(=O)/C(=C/c3ccc4c(c3)c3ccccc3n4C)SC2=S)cc1OC ?
5.2

Which selectivity ratio value is on record for Cn1c2ccccc2c2cc(/C=C3\SC(=S)N(c4ccccc4)C3=O)ccc21 ?
3.2

Which selectivity ratio value is on record for Cn1c2ccccc2c2cc(/C=C3\SC(=S)N(c4cccc(O)c4)C3=O)ccc21 ?
11.6

* * *

- Tested on: Mycobacterium tuberculosis
- Assay name: Antimycobacterial activity against Mycobacterium tuberculosis H37Rv incubated for 5 days under aerobic condition by fluorescence assay
- Format: functional, organism-based
- Reported conditions: 120 h
Quantity measured: MIC

Which MIC value is on record for O=C(c1ccc2[nH]ccc2c1)N1CCN(C2c3ccccc3-c3ccccc32)CC1 ?
> 50 µM

Which MIC value is on record for COc1ccc(-c2nnc(N3C(=O)/C(=C/c4ccc5c(c4)c4ccccc4n5C)SC3=S)s2)cc1 ?
> 100 µM

Which MIC value is on record for Cn1c2ccccc2c2cc(/C=C3\SC(=S)N(c4cc(C(=O)O)cc(C(=O)O)c4)C3=O)ccc21 ?
> 100 µM

Which MIC value is on record for COC(=O)c1ccc(N2C(=O)/C(=C/c3ccc4c(c3)c3ccccc3n4C)SC2=S)cc1 ?
> 100 µM

Which MIC value is on record for COc1cccc(N2C(=O)/C(=C/c3ccc4c(c3)c3ccccc3n4C)SC2=S)c1 ?
> 100 µM

Entry source: ChEMBL document CHEMBL4387759
